Target: SARS-CoV-2 Spike S1-His (SARS-CoV-2, UniProt P0DTC2 16-685)
Assay Info: Octet BLI, IgG, monovalent
Threshold-based label: Kd under 0.4 nM gives t, Kd not under 0.4 nM gives f.

# count of solved cases: 4
[[record]]
binder = "A-20.2 (antibody, V domains shown) VH: QVQLVQSGGGVVQPGRSLRLSCAASGFTFDNFAMHWVRQAPGKGLEWVAVIEYDGINKYYADSVKGRFTISRGNSKNTLSLQMNSLRAEDTAVYYCARAQNYYDRYGTLQLDAFDIWGQGTLVTVSS VL: AIQMTQSPSSLSASVGDRVTITCRASQGIRNDLGWYQQKPGKAPKLLIYDASSLQSGVPSRFSGSGSGTDFTLTISSLQPEDFATYYCLQDYNYPLTFGGGTKVEIK"
cat = "t"

[[record]]
binder = "A-23.2 (antibody, V domains shown) VH: EVQLVESGGGLVQPGRSLRLSCAASGFTFDDYAMHWVRQAPGKGLEWVSGTSWNSGTIGYADSVKGRFIISRDNAKNSLYLQMNSLRGEDMALYYCVKDRKREDPSLGGMDVWGQGTTVTVSS VL: SYVLTQPPSVSVAPGQTARITCGGNNIGSKSVHWYQQKPGQAPVLVVYDDTDRPSGIPERFSGSNSGNTATLTISRVEAGDEADYYCQVWDVSSDSYVFGTGTKVTVL"
cat = "f"

[[record]]
binder = "A-21.3 (antibody, V domains shown) VH: EVQLVESGGGLVQPGGSLRLSCAASGFTFRRYWMHWVRQAPGKGLEWVSRINSDGSSTTYADSVEGRFTISRDNAKNTLYLQMNSLRAEDTAVYYCARELYYYDRRGAEEGEGWFDPWGQGTLVTVSS VL: QSVLTQPPSVSGAPGQRVTISCTGISSNIGAEYDVHWYQQLPGTAPKLLIYGNSNRPRGVPDRFSASKSGTSAPLAITGLQAEDEADYYCQVSDRYLSGSVFGTGTKVTVL"
cat = "t"

[[record]]
binder = "A-20.3 (antibody, V domains shown) VH: QVQLVQSGGGVVQPGRSLRLSCAASGFTFDNFAMHWVRQAPGKGLEWVAVILYDGINDYYADSVKGRFTISRGNSKNTLSLQMNSLRAEDTAVYYCARAQNYYDRHGTLQLDAFDIWGQGTLVTVSS VL: AIQMTQSPSSLSASVGDRVTITCRASDGIRNDLGWYQQKPGKAPKLLIYEASSLQSGVPSRFSGSGSGTDFTLTISSLQPEDFATYYCLQNYNYPLTFGGGTKVEIK"
cat = "t"


Could you now consider this next binder?
**Query** Check if Kd falls below 0.4 nM for A-24.1 (antibody, V domains shown) VH: EVQLVESGGGLVKPGRSLRLSCAASGFTFADYTMSWFRQAPGKGLEWVGFIRSEPYGGTTEYAASVKGRFTISRDDSKSIAYLQMNSLKTEDTAVYYCSRDPWYCSGGDCYAVTGSWFDPWGQGTLVTVSS VL: DIQMTQSPSSLSASVGDRVTITCQASQDIKKYLNWYQQKPGKAPKLLIYDVSNLETGVPSRFSGSGSGTDFTFTISSLQPEDVAIYYCQQYDNLPQTFGQGTKVEIK .
**Result** f
